substrate: O=C(O)CO; assay: purified protein; conditions: 50 mM Tris-HCl pH 8.0, 0.1 mM FMN, 30 °C
Each entry below carries its reported Km.
The answer is to be given in µM; state only the numeric part.

- protein: "AtGOX2 (Arabidopsis thaliana; T265D) (protein) MEITNVTEYDAIAKAKLPKMVYDYYASGAEDQWTLQENRNAFARILFRPRILIDVNKIDMATTVLGFKISMPIMVAPTAFQKMAHPDGEYATARAASAAGTIMTLSSWATSSVEEVASTGPGIRFFQLYVYKNRKVVEQLVRRAEKAGFKAIALTVDTPRLGRRESDIKNRFTLPPNLTLKNFEGLDLGKMDEANDSGLASYVAGQIDRTLSWKDIQWLQTITNMPILVKGVLTGEDARIAIQAGAAGIIVSNHGARQLDYVPADISALEEVVKATQGRVPVFLDGGVRRGTDVFKALALGASGIFIGRPVVFALAAEGEAGVKKVLQMLRDEFELTMALSGCRSLSEITRNHIVTEWDTPRHLPRL"
  Km / µM: 388

Please turn your attention to the following entry.
The value of Km measured for the protein AtGOX2 (Arabidopsis thaliana; T158V) (protein) MEITNVTEYDAIAKAKLPKMVYDYYASGAEDQWTLQENRNAFARILFRPRILIDVNKIDMATTVLGFKISMPIMVAPTAFQKMAHPDGEYATARAASAAGTIMTLSSWATSSVEEVASTGPGIRFFQLYVYKNRKVVEQLVRRAEKAGFKAIALTVDVPRLGRRESDIKNRFTLPPNLTLKNFEGLDLGKMDEANDSGLASYVAGQIDRTLSWKDIQWLQTITNMPILVKGVLTGEDARIAIQAGAAGIIVSNHGARQLDYVPATISALEEVVKATQGRVPVFLDGGVRRGTDVFKALALGASGIFIGRPVVFALAAEGEAGVKKVLQMLRDEFELTMALSGCRSLSEITRNHIVTEWDTPRHLPRL turned out to be 133
